competition rate listing for selected binders.
# System Name: T1, biotin-labeled recombinant EGFRvIII protein (UniProt P00533 25-645, biotin-labeled)
# T1 construct: the construct is not described
# Experiment: competitive ELISA; competitor Murine anti-7E5
Assay Endpoint: competition rate (%)

{"Binder": "Murine anti-75G7 (antibody, V domains shown, Mouse hybridoma antibody; also called 75G7C6) VH: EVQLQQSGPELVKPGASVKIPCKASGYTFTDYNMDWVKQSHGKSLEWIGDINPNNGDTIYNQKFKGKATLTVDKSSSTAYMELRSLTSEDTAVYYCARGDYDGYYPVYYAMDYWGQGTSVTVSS VL: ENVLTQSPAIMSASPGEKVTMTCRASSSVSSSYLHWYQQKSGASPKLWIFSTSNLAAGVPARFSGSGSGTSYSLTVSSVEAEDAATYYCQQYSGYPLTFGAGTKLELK", "Measured": 3}
{"Binder": "Murine anti-64F1 (antibody, V domains shown, Mouse hybridoma antibody; also called 64F1F8) VH: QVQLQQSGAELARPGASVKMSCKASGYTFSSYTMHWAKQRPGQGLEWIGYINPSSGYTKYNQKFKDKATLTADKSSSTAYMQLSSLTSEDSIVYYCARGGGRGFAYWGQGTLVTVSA VL: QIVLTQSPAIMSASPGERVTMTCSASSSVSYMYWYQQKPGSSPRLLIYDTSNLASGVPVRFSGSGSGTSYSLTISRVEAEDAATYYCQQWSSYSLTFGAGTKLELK", "Measured": 80}
{"Binder": "Murine anti-63A10 (antibody, V domains shown, Mouse hybridoma antibody; also called 63A10A7) VH: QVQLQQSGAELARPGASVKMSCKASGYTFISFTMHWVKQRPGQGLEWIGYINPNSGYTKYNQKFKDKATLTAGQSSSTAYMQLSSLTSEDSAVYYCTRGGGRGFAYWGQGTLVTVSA VL: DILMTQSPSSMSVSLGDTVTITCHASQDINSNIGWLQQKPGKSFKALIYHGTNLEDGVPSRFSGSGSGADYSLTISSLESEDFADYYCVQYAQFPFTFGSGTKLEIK", "Measured": 82}
